All figures here come from patent US10457709B2.

Entries and their Minimum inhibitory concentration
Tested on: C. parapsilosis clinical strains
run.description: MIC, clinical yeast strains
Assay type: cell-based, Candida parapsilosis
Set-up: unit: µg/ml
assay.context: C. parapsilosis clinical yeast strain 2
Square brackets hold non-standard residues; d marks the D form. Peptide text beside a SMILES is read from it.
The answer should be written as a number, with no unit following it.

CC(C)C[C@@H](NC(=O)[C@@H](CCCCN)NC(=O)[C@@H](Cc1c[nH]c2ccccc12)NC(=O)[C@@H](CCCCN)NC(=O)[C@@H](C)NC(=O)[C@@H](Cc1c[nH]cn1)NC(=O)[C@@H](CC(C)C)NC(=O)[C@@H](CCCNC(=N)N)NC(=O)[C@@H](Cc1c[nH]c2ccccc12)NC(=O)[C@H](N)Cc1c[nH]c2ccccc12)C(=O)N[C@H](Cc1c[nH]c2ccccc12)C(=O)O [Chain109D] (H-[dW][dW][dR][dL][dH][dA][dK][dW][dK][dL][dW]-OH)    128
C[C@@H]1[C@H](O)[C@@H](C)/C=C/C=C/C=C/C=C/C=C/C=C/C=C/[C@H](O[C@@H]2O[C@H](C)[C@@H](O)[C@H](N)[C@@H]2O)C[C@@H]2O[C@](O)(C[C@@H](O)C[C@@H](O)[C@H](O)CC[C@@H](O)C[C@@H](O)CC(=O)O[C@H]1C)C[C@H](O)[C@H]2C(=O)O    2
CC[C@@H](C)[C@@H](NC(=O)[C@@H](Cc1c[nH]c2ccccc12)NC(=O)[C@H](N)CCCCN)C(=O)N[C@@H](C(=O)N[C@H](Cc1c[nH]c2ccccc12)C(=O)N[C@H](CCCNC(=N)N)C(=O)N[C@H](Cc1c[nH]c2ccccc12)C(=O)N[C@H](CCCNC(=N)N)C(=O)N[C@H](Cc1ccccc1)C(=O)N[C@H](CCCCN)C(=O)N[C@H](CCCNC(=N)N)C(=O)O)C(C)C [Chain201D] (H-[dK][dW][dI][dV][dW][dR][dW][dR][dF][dK][dR]-OH)    8
CC(C)C[C@@H](NC(=O)[C@@H](Cc1c[nH]c2ccccc12)NC(=O)[C@@H](Cc1ccccc1)NC(=O)[C@@H](Cc1c[nH]c2ccccc12)NC(=O)[C@@H](CCCCN)NC(=O)[C@@H](CCCNC(=N)N)NC(=O)[C@H](N)Cc1c[nH]c2ccccc12)C(=O)N[C@H](Cc1ccccc1)C(=O)N[C@H](CCCCN)C(=O)N[C@H](CCCCN)C(=O)N[C@H](CCCNC(=N)N)C(=O)O [Chain309D] (H-[dW][dR][dK][dW][dF][dW][dL][dF][dK][dK][dR]-OH)    64
CC[C@@H](C)[C@@H](NC(=O)[C@@H](CC(C)C)NC(=O)[C@@H](CCCNC(=N)N)NC(=O)[C@H](N)CCCNC(=N)N)C(=O)N[C@H](Cc1c[nH]c2ccccc12)C(=O)N[C@H](CCCNC(=N)N)C(=O)N[C@H](CCCNC(=N)N)C(=O)N[C@H](Cc1ccccc1)C(=O)N[C@H](CCCCN)C(=O)N[C@H](Cc1c[nH]c2ccccc12)C(=O)N[C@H](CC(C)C)C(=O)N[C@H](CCCNC(=N)N)C(=O)O [Chain204D] (H-[dR][dR][dL][dI][dW][dR][dR][dF][dK][dW][dL][dR]-OH)    4
CC(C)C[C@@H](NC(=O)[C@H](N)CCCCN)C(=O)N[C@H](CCCCN)C(=O)N[C@H](Cc1c[nH]c2ccccc12)C(=O)N[C@H](Cc1ccccc1)C(=O)N[C@H](Cc1c[nH]c2ccccc12)C(=O)N[C@H](CC(C)C)C(=O)N[C@H](Cc1ccccc1)C(=O)N[C@H](CCCCN)C(=O)N[C@H](CCCCN)C(=O)N[C@H](CCCNC(=N)N)C(=O)O [Chain311D] (H-[dK][dL][dK][dW][dF][dW][dL][dF][dK][dK][dR]-OH)    8
CC(C)C[C@@H](NC(=O)[C@@H](CCCCN)NC(=O)[C@@H](CCCCN)NC(=O)[C@@H](Cc1ccccc1)NC(=O)[C@@H](CC(C)C)NC(=O)[C@@H](Cc1c[nH]c2ccccc12)NC(=O)[C@@H](CCCNC(=N)N)NC(=O)[C@@H](Cc1c[nH]c2ccccc12)NC(=O)[C@@H](CCCCN)NC(=O)[C@@H](CCCNC(=N)N)NC(=O)[C@H](N)CCCCN)C(=O)O [Chain310D] (H-[dK][dR][dK][dW][dR][dW][dL][dF][dK][dK][dL]-OH)    64
CC[C@@H](C)[C@@H](N)C(=O)N[C@H](Cc1c[nH]c2ccccc12)C(=O)N[C@H](CCCCN)C(=O)N[C@H](CCCNC(=N)N)C(=O)N[C@H](Cc1ccccc1)C(=O)N[C@H](CCCNC(=N)N)C(=O)N[C@H](CC(C)C)C(=O)N[C@H](Cc1ccccc1)C(=O)N[C@H](CCCCN)C(=O)N[C@H](CCCCN)C(=O)N[C@H](Cc1c[nH]c2ccccc12)C(=O)O [Chain304D] (H-[dI][dW][dK][dR][dF][dR][dL][dF][dK][dK][dW]-OH)    64

Next compound, please.
Ask: # Minimum inhibitory concentration lookup, item CC(C)C[C@@H](NC(=O)[C@H](N)CCCNC(=N)N)C(=O)N[C@H](CCCCN)C(=O)N[C@H](Cc1c[nH]c2ccccc12)C(=O)N[C@H](Cc1ccccc1)C(=O)N[C@H](Cc1c[nH]c2ccccc12)C(=O)N[C@H](CC(C)C)C(=O)N[C@H](Cc1ccccc1)C(=O)N[C@H](CCCNC(=N)N)C(=O)N[C@H](CCCCN)C(=O)N[C@H](CCCNC(=N)N)C(=O)O [Chain307D] (H-[dR][dL][dK][dW][dF][dW][dL][dF][dR][dK][dR]-OH)
Result: 8

====

System: Acinetobacter baumannii clinical strains
Type: cell-based
Parameters: unit: μg/ml
assay.context: Acinetobacter baumannii clinical strain 3; microdilution, Muller Hinton broth-cation adjusted, 0.02% BSA, 0.2% acetic acid
Square brackets hold non-standard residues; d marks the D form. Peptide text beside a SMILES is read from it.
In this section we review reported Minimum inhibitory concentration values for a set of compounds.
Output: the number by itself.

Examples with their reported Minimum inhibitory concentration follow.
CC(C)C[C@@H](NC(=O)[C@H](N)CCCNC(=N)N)C(=O)N[C@H](CCCCN)C(=O)N[C@H](CCCNC(=N)N)C(=O)N[C@H](Cc1c[nH]c2ccccc12)C(=O)N[C@H](CCCNC(=N)N)C(=O)N[C@H](CC(C)C)C(=O)N[C@H](Cc1ccccc1)C(=O)N[C@H](CCCNC(=N)N)C(=O)N[C@H](CCCCN)C(=O)N[C@H](CCCNC(=N)N)C(=O)O [Chain306D] (H-[dR][dL][dK][dR][dW][dR][dL][dF][dR][dK][dR]-OH)    16
CC[C@@H](C)[C@@H](NC(=O)[C@@H](Cc1c[nH]c2ccccc12)NC(=O)[C@H](N)CCCCN)C(=O)N[C@@H](C(=O)N[C@H](Cc1c[nH]c2ccccc12)C(=O)N[C@H](CCCNC(=N)N)C(=O)N[C@H](Cc1c[nH]c2ccccc12)C(=O)N[C@H](CCCNC(=N)N)C(=O)N[C@H](Cc1ccccc1)C(=O)N[C@H](CCCCN)C(=O)N[C@H](CCCNC(=N)N)C(=O)O)C(C)C [Chain201D] (H-[dK][dW][dI][dV][dW][dR][dW][dR][dF][dK][dR]-OH)    4
CC[C@@H](C)[C@@H](NC(=O)[C@@H](CC(C)C)NC(=O)[C@@H](CCCNC(=N)N)NC(=O)[C@H](N)CCCNC(=N)N)C(=O)N[C@H](Cc1c[nH]c2ccccc12)C(=O)N[C@H](CCCNC(=N)N)C(=O)N[C@H](CCCNC(=N)N)C(=O)N[C@H](Cc1ccccc1)C(=O)N[C@H](CCCCN)C(=O)N[C@H](Cc1c[nH]c2ccccc12)C(=O)N[C@H](CC(C)C)C(=O)N[C@H](CCCNC(=N)N)C(=O)O [Chain204D] (H-[dR][dR][dL][dI][dW][dR][dR][dF][dK][dW][dL][dR]-OH)    4

Ask: Find the recorded Minimum inhibitory concentration belonging to CC(C)C[C@@H](NC(=O)[C@H](N)CCCNC(=N)N)C(=O)N[C@H](CCCCN)C(=O)N[C@H](Cc1c[nH]c2ccccc12)C(=O)N[C@H](Cc1ccccc1)C(=O)N[C@H](CC(C)C)C(=O)N[C@H](CC(C)C)C(=O)N[C@H](Cc1ccccc1)C(=O)N[C@H](CCCNC(=N)N)C(=O)N[C@H](CCCCN)C(=O)N[C@H](CCCNC(=N)N)C(=O)O [Chain308D] (H-[dR][dL][dK][dW][dF][dL][dL][dF][dR][dK][dR]-OH) and report it.
Result: 4
